- Tested on: Mycobacterium tuberculosis
- assay-explanation: Cornell M. t heat shock assay; also: in the data most compounds retested in dose-response had high values
- Type: functional, organism-based
- Parameters: dose or concentration left out as unconfirmed
In all, about 69,000 compounds went through this assay and about 950 (1.4%) showed an effect of 50% or more. For the sample, strong results were picked, then their nearest neighbours and some compounds at random.
measure: Percent Effect (%)
Unit % implied. Number only.

These solved cases illustrate the format of a correct answer.
[
  {
    "compound": "Cc1ccc(CN2CCn3cc(CN4CCN(C)CC4)nc3C2)cc1.O=C(O)C(F)(F)F.O=C(O)C(F)(F)F.O=C(O)C(F)(F)F",
    "measure": "Percent Effect",
    "measured": -4.711
  },
  {
    "compound": "O=c1cc(CN2CCCC2)nc2n1CCCN(CC1CCOCC1)C2",
    "measure": "Percent Effect",
    "measured": -14.03
  },
  {
    "compound": "CN(C)S(=O)(=O)N1CCN(c2ccnc(N3CCCCC3)n2)CC1",
    "measure": "Percent Effect",
    "measured": -3.243
  },
  {
    "compound": "Cc1cnc(N2CCc3c(CNc4ccnc(C)n4)cncc3C2)nc1.Cl",
    "measure": "Percent Effect",
    "measured": 12.07
  },
  {
    "compound": "COc1ccc(-c2nc(CNC(C)Cn3cccn3)cs2)cc1 (centres undefined)",
    "measure": "Percent Effect",
    "measured": 58.05
  },
  {
    "compound": "COCCN1CC[C@H]2OCC[C@@H](C(=O)N3CCCO3)[C@H]2C1.O=C(O)C(F)(F)F",
    "measure": "Percent Effect",
    "measured": -19.22
  },
  {
    "compound": "COc1ccc(-c2noc(CNC(C)Cn3cccn3)n2)c(OC)c1 (centres undefined)",
    "measure": "Percent Effect",
    "measured": -27.41
  },
  {
    "compound": "CCOC1COC2(CCN(Cc3cccnc3OC)CC2)C1.O=C(O)C(F)(F)F.O=C(O)C(F)(F)F (centres undefined)",
    "measure": "Percent Effect",
    "measured": 16.61
  },
  {
    "compound": "O=C(O)C(F)(F)F.O=C(O)C(F)(F)F.c1cc(CN2CCO[C@H]3[C@H](OCC4CCCC4)CC[C@@H]32)ccn1",
    "measure": "Percent Effect",
    "measured": 3.983
  },
  {
    "compound": "Cc1ccc(-c2nc(CNC(C)Cn3cccn3)cs2)o1 (centres undefined)",
    "measure": "Percent Effect",
    "measured": 55.14
  }
]

Query :: What does the record list as Percent Effect for "COc1cccc(-c2nc(CNCc3cccnc3)cs2)c1" ?
Result :: -18.41

Query :: What does the record list as Percent Effect for COc1ccc(CN2CCC(c3cc(O)nc(C)n3)C2)c(OC)c1.O=C(O)CC(O)(CC(=O)O)C(=O)O (centres undefined) ?
Result :: -19.34

Query :: What does the record list as Percent Effect for "O=C(O)C(F)(F)F.O=C(O)C(F)(F)F.c1cncc(O[C@H]2CC[C@H]3[C@H]2OCCN3C2CCC2)c1" ?
Result :: -41.43

Query :: What does the record list as Percent Effect for "CN(C)C(=O)COC[C@]12COC[C@H]1CN(C1CCCC1)C2.O=C(O)C(F)(F)F" ?
Result :: 33.3

Query :: What does the record list as Percent Effect for "O=C(O)C(F)(F)F.O=C1C[C@H]2[C@@H](CCN2C(=O)Cc2cccs2)N1Cc1cccnc1" ?
Result :: -27.42

Query :: What does the record list as Percent Effect for CC(Cn1cccn1)NCc1csc(-c2ccccc2)n1 (centres undefined) ?
Result :: 29.32

Query :: What does the record list as Percent Effect for "CN(C)C(=O)[C@H]1CO[C@H]2CCN(c3ncc(F)cn3)C[C@H]2C1.O=C(O)C(F)(F)F" ?
Result :: 5.292

Query :: What does the record list as Percent Effect for "CC(=O)N1CCN(c2cc(C3CCNCC3)ccn2)CC1.Cl.Cl" ?
Result :: 2.778

Query :: What does the record list as Percent Effect for "CS(=O)(=O)N1CCN(c2ccnc(N3CCCCC3)n2)CC1" ?
Result :: 54.19
